- assayedTarget: HLA-A*24:03
- measurementDescription: IEDB peptide-MHC binding, purified MHC/competitive/fluorescence; filed as Kd, often an IC50 or EC50 that approximates it; bounds were set here for any values at or beyond the usual limits of such assays
- recordedConditions: source organism: Campylobacter jejuni subsp. jejuni NCTC 11168 = ATCC 700819
pKd: −log10 of the molar value.

- seqString: "LELAEITAE"
  pKd: "≤ 4.70"

###

- assayedTarget: HLA-B*44:03
- measurementDescription: IEDB peptide-MHC binding, purified MHC/competitive/radioactivity; filed as Kd, often an IC50 or EC50 that approximates it; bounds were set here for any values at or beyond the usual limits of such assays
- recordedConditions: source organism: Dengue virus 4 Philippines/H241/1956
pKd: −log10 of the molar value.

- seqString: "LEENMEVEIW"
  pKd: 6.59

###

- assayedTarget: HLA-A*02:06
- measurementDescription: IEDB peptide-MHC binding, purified MHC/direct/fluorescence; filed as Kd, often an IC50 or EC50 that approximates it; bounds were set here for any values at or beyond the usual limits of such assays
- recordedConditions: source organism: Clostridium botulinum NCTC 2916

- seqString: "RVYINVVVK"
  unitsOfMeasure: "nM"
  Kd: 263

###

- assayedTarget: HLA-A*02:01
- measurementDescription: IEDB peptide-MHC binding, purified MHC/competitive/radioactivity; filed as Kd, often an IC50 or EC50 that approximates it; bounds were set here for any values at or beyond the usual limits of such assays
- recordedConditions: source organism: Triticum aestivum
pKd: −log10 of the molar value.
Each entry below carries its recorded pKd.

- seqString: "ELCCQHLWQI"
  pKd: 5.26
- seqString: "AIHNVVHAI"
  pKd: 6.78

###

- assayedTarget: HLA-A*32:01
- measurementDescription: IEDB peptide-MHC binding, purified MHC/competitive/radioactivity; filed as Kd, often an IC50 or EC50 that approximates it; bounds were set here for any values at or beyond the usual limits of such assays
- recordedConditions: source organism: Lassa virus Josiah
propertyLabel: Kd

- seqString: "SSGCYIHFF"
  assayedTarget: "HLA-A*32:01"
  propertyLabel: "Kd"
  measValue: "≥ 33.6 µM"
- seqString: "ITEMLQKEY"
  assayedTarget: "HLA-A*32:01"
  propertyLabel: "Kd"
  measValue: "≥ 77.8 µM"

###

- assayedTarget: HLA-B*15:01
- measurementDescription: IEDB peptide-MHC binding, purified MHC/competitive/fluorescence; filed as Kd, often an IC50 or EC50 that approximates it; bounds were set here for any values at or beyond the usual limits of such assays
- recordedConditions: source organism: Vibrio antiquarius
pKd: −log10 of the molar value.

- seqString: "FDLFGITLY"
  pKd: "≤ 4.70"

###

Each entry below carries its recorded pKd.
- assayedTarget: HLA-A*03:01
- measurementDescription: IEDB peptide-MHC binding, purified MHC/direct/fluorescence; filed as Kd, often an IC50 or EC50 that approximates it; bounds were set here for any values at or beyond the usual limits of such assays
- recordedConditions: source organism: Rickettsia prowazekii
pKd: −log10 of the molar value.

- seqString: "QFAGGSFDF"
  pKd: "≤ 4.70"
- seqString: "IYSAEFKNY"
  pKd: "≤ 4.70"

###

- assayedTarget: HLA-A*03:01
- measurementDescription: IEDB peptide-MHC binding, purified MHC/direct/fluorescence; filed as Kd, often an IC50 or EC50 that approximates it; bounds were set here for any values at or beyond the usual limits of such assays
- recordedConditions: source organism: Reston ebolavirus - Reston

- seqString: "SKLRALLTL"
  assayedTarget: "HLA-A*03:01"
  Kd: "≥ 20 µM"

###

- assayedTarget: HLA-A*02:11
- measurementDescription: IEDB peptide-MHC binding, purified MHC/direct/fluorescence; filed as Kd, often an IC50 or EC50 that approximates it; bounds were set here for any values at or beyond the usual limits of such assays
- recordedConditions: source organism: Influenza A virus H3N2
pKd: −log10 of the molar value.
propertyLabel: pKd

- seqString: "GMDPRMCSL"
  measValue: 7.96

###

- assayedTarget: HLA-A*26:01
- measurementDescription: IEDB peptide-MHC binding, purified MHC/direct/fluorescence; filed as Kd, often an IC50 or EC50 that approximates it; bounds were set here for any values at or beyond the usual limits of such assays
- recordedConditions: source organism: Orthomarburgvirus marburgense

- seqString: "GELRKAICL"
  assayedTarget: "HLA-A*26:01"
  Kd: "≥ 20 µM"

###

- assayedTarget: HLA-B*08:01
- measurementDescription: IEDB peptide-MHC binding, purified MHC/direct/fluorescence; filed as Kd, often an IC50 or EC50 that approximates it; bounds were set here for any values at or beyond the usual limits of such assays
- recordedConditions: source organism: Giardia intestinalis

- seqString: "DYAMHGTVF"
  assayedTarget: "HLA-B*08:01"
  measurementQualifier: "="
  Kd, µM: 14.6
- seqString: "GYTPGQQFY"
  assayedTarget: "HLA-B*08:01"
  measurementQualifier: "≥"
  Kd, µM: 20

###

- assayedTarget: HLA-B*53:01
- measurementDescription: IEDB peptide-MHC binding, purified MHC/competitive/radioactivity; filed as Kd, often an IC50 or EC50 that approximates it; bounds were set here for any values at or beyond the usual limits of such assays
- recordedConditions: source organism: Dengue virus 1 Brazil/97-11/1997
propertyLabel: Kd (nM)

- seqString: "LPTALAFHL"
  measValue: 2.16
- seqString: "EPEVANLDII"
  measValue: 8450
- seqString: "YSDPLALREF"
  measValue: 899
- seqString: "RPMFAVGLLF"
  measValue: 93.5

###

- assayedTarget: HLA-B*44:02
- measurementDescription: IEDB peptide-MHC binding, purified MHC/direct/fluorescence; filed as Kd, often an IC50 or EC50 that approximates it; bounds were set here for any values at or beyond the usual limits of such assays
- recordedConditions: source organism: Vibrio parahaemolyticus
pKd: −log10 of the molar value.
propertyLabel: pKd

- seqString: "IRSCWRYRK"
  assayedTarget: "HLA-B*44:02"
  propertyLabel: "pKd"
  measValue: "≤ 4.70"

###

- assayedTarget: HLA-A*29:02
- measurementDescription: IEDB peptide-MHC binding, purified MHC/competitive/fluorescence; filed as Kd, often an IC50 or EC50 that approximates it; bounds were set here for any values at or beyond the usual limits of such assays
- recordedConditions: source organism: Mycosarcoma maydis

- seqString: "IPVHPRHPY"
  Kd / nM: 938

###

- assayedTarget: HLA-A*02:11
- measurementDescription: IEDB peptide-MHC binding, purified MHC/competitive/fluorescence; filed as Kd, often an IC50 or EC50 that approximates it; bounds were set here for any values at or beyond the usual limits of such assays
- recordedConditions: source organism: Salmonella enterica subsp. enterica serovar Paratyphi A str. AKU_12601

- seqString: "AMDTHLYFE"
  Kd: "53.9 nM"

###

Each entry below carries its recorded pKd.
- assayedTarget: HLA-A*02:06
- measurementDescription: IEDB peptide-MHC binding, purified MHC/competitive/radioactivity; filed as Kd, often an IC50 or EC50 that approximates it; bounds were set here for any values at or beyond the usual limits of such assays
- recordedConditions: source organism: Dengue virus 3 Martinique/1243/1999
pKd: −log10 of the molar value.

- seqString: "GIITLYLGAV"
  pKd: 8.30
- seqString: "FTMGVLCLA"
  pKd: 8.50

###

- assayedTarget: HLA-A*66:01
- measurementDescription: IEDB peptide-MHC binding, purified MHC/competitive/fluorescence; filed as Kd, often an IC50 or EC50 that approximates it; bounds were set here for any values at or beyond the usual limits of such assays
- recordedConditions: source organism: Bacillus anthracis str. A0488

- seqString: "WDAYIPHYV"
  Kd: "≥ 5 µM"

###

- assayedTarget: HLA-A*02:03
- measurementDescription: IEDB peptide-MHC binding, purified MHC/direct/fluorescence; filed as Kd, often an IC50 or EC50 that approximates it; bounds were set here for any values at or beyond the usual limits of such assays
- recordedConditions: source organism: Zaire ebolavirus
pKd: −log10 of the molar value.

- seqString: "SKLRALLTL"
  pKd: "≤ 4.70"

###

- assayedTarget: HLA-B*46:01
- measurementDescription: IEDB peptide-MHC binding, purified MHC/direct/fluorescence; filed as Kd, often an IC50 or EC50 that approximates it; bounds were set here for any values at or beyond the usual limits of such assays
- recordedConditions: source organism: Influenza A virus (A/whooper swan/Mongolia/6/05(H5N1))
pKd: −log10 of the molar value.
propertyLabel: pKd

- seqString: "SSDDFALIV"
  measValue: "≤ 4.70"

###

- assayedTarget: HLA-A*01:01
- measurementDescription: IEDB peptide-MHC binding, purified MHC/competitive/fluorescence; filed as Kd, often an IC50 or EC50 that approximates it; bounds were set here for any values at or beyond the usual limits of such assays
- recordedConditions: source organism: Mycobacterium leprae
propertyLabel: Kd

- seqString: "TVGYMYIMK"
  propertyLabel: "Kd"
  measValue: "≥ 20 µM"

All figures here come from the Immune Epitope Database (IEDB).
